molecular target: BuChE hserum (Homo sapiens); assay: Inhibition of butyrylcholinesterase from human serum (Ellman method)
Sequence (P06276 29-602): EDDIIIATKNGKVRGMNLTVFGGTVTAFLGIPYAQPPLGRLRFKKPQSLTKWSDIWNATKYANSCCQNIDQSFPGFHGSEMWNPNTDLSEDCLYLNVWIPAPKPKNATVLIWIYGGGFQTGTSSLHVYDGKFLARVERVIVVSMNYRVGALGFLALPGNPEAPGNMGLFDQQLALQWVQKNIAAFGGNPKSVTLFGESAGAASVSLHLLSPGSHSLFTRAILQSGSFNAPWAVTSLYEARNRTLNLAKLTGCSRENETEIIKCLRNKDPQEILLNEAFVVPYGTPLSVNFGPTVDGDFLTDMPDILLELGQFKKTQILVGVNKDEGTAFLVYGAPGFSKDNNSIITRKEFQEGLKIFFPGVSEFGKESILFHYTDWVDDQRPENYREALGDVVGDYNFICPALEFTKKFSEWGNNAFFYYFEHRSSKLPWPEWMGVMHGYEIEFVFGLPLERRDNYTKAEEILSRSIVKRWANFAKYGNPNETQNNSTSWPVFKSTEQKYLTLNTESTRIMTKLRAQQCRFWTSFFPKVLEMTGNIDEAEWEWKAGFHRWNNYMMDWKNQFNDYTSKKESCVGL
pIC50: −log10 of the molar value.
QUANTITY_NAME: pIC50

The recorded pIC50 for CN(C)CC(C)(C)c1cccc(OC(=O)N(C)c2cccc(F)c2)c1 is < 4.00

The recorded pIC50 for CN(C)CC(C)(C)c1cccc(OC(=O)N(C)C2CCCCC2)c1 is < 4.00

The recorded pIC50 for CN(C)CC(C)(C)c1cccc(OC(=O)N(C)c2ccccc2)c1 is < 3.00

The recorded pIC50 for COc1ccc(N(C)C(=O)Oc2cccc(C(C)(C)CN(C)C)c2)cc1 is < 4.00

The recorded pIC50 for CN(C)CC(C)(C)c1cccc(OC(=O)Nc2cccc(F)c2)c1 is < 4.00

The recorded pIC50 for CCCCNC(=O)Oc1cccc(C(C)(C)CN(C)C)c1 is 8.80

The recorded pIC50 for CN(C)CC(C)(C)c1cccc(OC(=O)N(C)c2cccc(C(F)(F)F)c2)c1 is < 4.00

The recorded pIC50 for CN(C)CC(C)(C)c1cccc(OC(=O)Nc2cccc(Cl)c2)c1 is < 4.00

The recorded pIC50 for COc1cc2nc(NCCCCCCCNC(=O)Oc3cccc(C(C)(C)CN(C)C)c3)nc(N)c2cc1OC is 7.55

The recorded pIC50 for CN(C)CC(C)(C)c1cccc(OC(=O)NCc2ccccc2)c1 is 8.89

====

IC50 data for AChE hRBC (Homo sapiens) follow.
The reply should contain only the number, in nM.

IC50 for AChE hRBC (Homo sapiens) with input COc1ccc(N(C)C(=O)Oc2cccc(C(C)(C)CN(C)C)c2)cc1 equals 13

IC50 for AChE hRBC (Homo sapiens) with input CN(C)CC(C)(C)c1cccc(OC(=O)Nc2cccc(Cl)c2)c1 equals 220

IC50 for AChE hRBC (Homo sapiens) with input CN(C)CC(C)(C)c1cccc(OC(=O)Nc2cccc(F)c2)c1 equals 220

IC50 for AChE hRBC (Homo sapiens) with input COc1cc2nc(NCCCCCCCNC(=O)Oc3cccc(C(C)(C)CN(C)C)c3)nc(N)c2cc1OC equals 15

IC50 for AChE hRBC (Homo sapiens) with input COc1cccc(NC(=O)Oc2cccc(C(C)(C)CN(C)C)c2)c1 equals 210

IC50 for AChE hRBC (Homo sapiens) with input CN(C)CC(C)(C)c1cccc(OC(=O)NCc2ccccc2)c1 equals 60
